- system-name: human αVβ6 integrin on cells (human, UniProt P06756 31-1048; P18564 22-788)
- Sequence (P06756 31-1048, chain 1 of 2): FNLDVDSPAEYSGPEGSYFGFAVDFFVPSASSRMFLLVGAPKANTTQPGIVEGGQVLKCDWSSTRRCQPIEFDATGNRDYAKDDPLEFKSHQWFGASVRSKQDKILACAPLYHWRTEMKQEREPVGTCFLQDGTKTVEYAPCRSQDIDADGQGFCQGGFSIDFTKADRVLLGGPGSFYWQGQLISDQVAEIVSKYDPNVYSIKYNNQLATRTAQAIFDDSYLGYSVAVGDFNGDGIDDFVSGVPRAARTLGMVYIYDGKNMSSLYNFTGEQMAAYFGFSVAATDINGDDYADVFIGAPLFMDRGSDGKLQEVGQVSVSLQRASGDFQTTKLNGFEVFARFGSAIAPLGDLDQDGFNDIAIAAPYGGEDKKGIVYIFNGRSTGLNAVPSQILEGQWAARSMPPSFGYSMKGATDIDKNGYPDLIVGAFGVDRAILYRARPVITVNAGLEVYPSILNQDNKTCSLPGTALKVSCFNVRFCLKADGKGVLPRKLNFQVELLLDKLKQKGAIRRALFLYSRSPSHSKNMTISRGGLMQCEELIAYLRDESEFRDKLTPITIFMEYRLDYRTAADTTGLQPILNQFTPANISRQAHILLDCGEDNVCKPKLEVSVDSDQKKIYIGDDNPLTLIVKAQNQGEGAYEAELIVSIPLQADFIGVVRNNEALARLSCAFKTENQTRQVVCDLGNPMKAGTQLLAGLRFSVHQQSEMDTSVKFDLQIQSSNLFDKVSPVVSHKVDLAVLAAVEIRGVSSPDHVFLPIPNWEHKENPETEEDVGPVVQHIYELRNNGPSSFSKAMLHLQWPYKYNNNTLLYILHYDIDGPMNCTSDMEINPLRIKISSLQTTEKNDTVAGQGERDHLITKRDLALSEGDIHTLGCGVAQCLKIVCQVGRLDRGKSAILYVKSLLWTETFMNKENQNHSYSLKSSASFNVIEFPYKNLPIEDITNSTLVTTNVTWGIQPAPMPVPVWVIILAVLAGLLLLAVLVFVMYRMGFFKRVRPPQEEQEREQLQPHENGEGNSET
- Sequence (P18564 22-788, chain 2 of 2): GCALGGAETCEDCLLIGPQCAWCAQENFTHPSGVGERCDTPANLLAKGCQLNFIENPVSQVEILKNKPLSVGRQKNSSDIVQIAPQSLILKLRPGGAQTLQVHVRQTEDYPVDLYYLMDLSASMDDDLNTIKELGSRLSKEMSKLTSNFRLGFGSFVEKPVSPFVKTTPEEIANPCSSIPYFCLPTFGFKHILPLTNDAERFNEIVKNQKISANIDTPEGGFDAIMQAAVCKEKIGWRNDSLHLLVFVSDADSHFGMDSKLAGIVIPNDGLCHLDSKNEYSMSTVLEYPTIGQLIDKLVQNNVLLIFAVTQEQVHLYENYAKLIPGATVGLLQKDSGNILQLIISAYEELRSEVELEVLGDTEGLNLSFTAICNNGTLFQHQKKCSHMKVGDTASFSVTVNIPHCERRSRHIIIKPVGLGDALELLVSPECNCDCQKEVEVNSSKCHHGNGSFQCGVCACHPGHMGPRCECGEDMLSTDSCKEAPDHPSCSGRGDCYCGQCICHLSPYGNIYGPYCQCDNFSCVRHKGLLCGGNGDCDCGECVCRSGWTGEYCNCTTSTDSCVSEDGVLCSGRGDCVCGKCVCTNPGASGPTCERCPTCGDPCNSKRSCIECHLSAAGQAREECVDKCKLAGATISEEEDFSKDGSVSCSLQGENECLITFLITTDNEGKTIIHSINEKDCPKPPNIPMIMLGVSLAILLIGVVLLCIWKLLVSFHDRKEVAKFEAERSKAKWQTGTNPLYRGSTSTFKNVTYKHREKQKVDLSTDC
- protocol: cell-based or functional assay
measured-attribute: Assay 1 % Inhibition (HT29 adhesion to TGFβLAP) (%)
Quick note: give the figure in %, leave out the unit.

binder="sc 161 (antibody, V domains shown) VH: EVQLVQSGAEVKKPGESLKISCKGSGYSFTSYWIGWVRQMPGKGLEWMGIIYPGDSDTRYSPSFQGQVTISADKSISTAYLQWSSLKASDTAMYYCARHGIAAAGFYYYYMDVWGQGTTVTVSS VL: EIVLTQSPDTLSLSPGERASLSCRASQNVNRNYLVWYQQKPGQAPRLLIYGTSNRATGIPDRFSGSGSGTDFTLTISRLEPEDFAVYYCQQCGSLPFTFGPGTKVDIKR" reported=98

Continue with the binder presented below.
Q: Using the record for sc 188 (antibody, V domains shown) VH: QVQLQESGPGLVKPSQTLSLTCTVSGGSISSGVYYWTWIRQHPGNGLEWIGYIYYSGSTSYNPSLKSRVTISVDTSKKQFSLNLTSVTAADTAVYYCAREGPLRGDYYYGLDVWGQGTTVTVSS VL: EIVLTQSPGTLSLSPGERATLSCRAGQTISSRYLAWYQQKPGQAPRPLIYGASSRATGIPDRFSGSGSGTDFTLTISRLEPEDFAVYYCQQYGSSPRTFGQGTKVEIK , report its Assay 1 % Inhibition (HT29 adhesion to TGFβLAP).
Result: 99
